Where do the numbers come from? From the NIST ThermoML archive (doi:10.1021/je800863c).

recorded conditions: 313.15 K, Pendant drop shape

{"columns": ["compound", "surface tension liquid-gas (mN/m)"],
 "data": [
  ["CCOS(=O)(=O)[O-].CCn1cc[n+](C)c1 [1-ethyl-3-methylimidazolium ethyl sulfate]", 46.78],
  ["CCCCn1cc[n+](C)c1.COS(=O)(=O)[O-] [1-butyl-3-methylimidazolium methyl sulfate]", 42.09],
  ["CCCCCCn1cc[n+](C)c1.COS(=O)(=O)[O-] [1-hexyl-3-methylimidazolium methyl sulfate]", 33.54],
  ["COS(=O)(=O)[O-].Cn1cc[n+](C)c1 [1,3-dimethylimidazolium methylsulfate]", 58.99]
]}

###

recorded conditions: 298.15 K; 101.33 kPa; Liquid; Falling or rolling sphere viscometry
Listed next: entries and their corresponding viscosity.

{"columns": ["compound", "unit symbol", "viscosity"],
 "data": [
  ["CCOS(=O)(=O)[O-].CCn1cc[n+](C)c1 [1-ethyl-3-methylimidazolium ethyl sulfate]", "mPa·s", 91.8],
  ["CCCCCCn1cc[n+](C)c1.CCOS(=O)(=O)[O-] [1-hexyl-3-methylimidazolium ethyl sulfate]", "mPa·s", 589],
  ["CCCCCCn1cc[n+](C)c1.COS(=O)(=O)[O-] [1-hexyl-3-methylimidazolium methyl sulfate]", "mPa·s", 383],
  ["CCCCn1cc[n+](C)c1.CCOS(=O)(=O)[O-] [1-butyl-3-methyl-1H-imidazolium ethyl sulfate]", "mPa·s", 379.1],
  ["COS(=O)(=O)[O-].Cn1cc[n+](C)c1 [1,3-dimethylimidazolium methylsulfate]", "mPa·s", 75.5]
]}
